Ref: ChEMBL document CHEMBL2311347

target: Gamma-secretase (Homo sapiens) (UniProt Q96BI3+Q9NZ42+Q8WW43+P49768+Q92542+P49810); assay: Inhibition of gamma secretase (unknown origin) assessed as ratio of Abeta to Abeta42 level; assay type: protein-complex assay
Provide the reported Ratio of each item.
Numbers only.

Could you report Ratio for every entry in the following list?
1. COc1cc(/C=C2\CCCCN3C2=NOC[C@@H]3c2cc(F)c(F)c(F)c2)ccc1-n1cnc(C)c1
2. COc1cc(/C=C2\CCCN3CCC(c4ccccc4)ON=C23)ccc1-n1cnc(C)c1 (centres undefined)
3. COc1cc(/C=C2\CCCN3C2=NOCC[C@@H]3c2ccc(F)c(F)c2)ccc1-n1cnc(C)c1
4. COc1cc(/C=C2\CCCN3CC(c4ccc(F)cc4)CON=C23)ccc1-n1cnc(C)c1 (centres undefined)

Result:
1. 32
2. 489
3. 466
4. 150
